Reported viability at 24 h, 100 µM values are given for each entry in this list.
Test: Cytotoxicity against chinese hamster V79-4 cells assessed as survival using 5 x 10^5 cells per plate at 10^-4 M after 24 hrs
Type: cell-based, Cricetulus griseus
Experimental Context: read-out: Survival
The answer should read as a number with its unit following.

Previously resolved entries follow.
{"Compound": "CC(CN(CC(=O)O)CC(=O)O)N(CC(=O)O)CC(=O)O (centres undefined)", "Recorded Metric": "viability at 24 h, 100 µM", "Value Measured": "85%"}
{"Compound": "COC(=O)CN(CC(=O)OC)[C@@H]1C[C@H]1N(CC(=O)OC)CC(=O)OC (relative stereo)", "Recorded Metric": "viability at 24 h, 100 µM", "Value Measured": "2%"}

// sample O=C(O)CN(CC(=O)O)[C@@H]1C[C@H]1N(CC(=O)O)CC(=O)O (relative stereo) , its viability at 24 h, 100 µM was 0.6%

// sample O=C1CN([C@H]2C[C@@H]2N2CC(=O)NC(=O)C2)CC(=O)N1 (relative stereo) , its viability at 24 h, 100 µM was 50%
